test system: Escherichia coli; test: Minimum inhibitory concentration against Escherichia coli (GC 4560) was determined; type: functional
parameter_measured: MIC (µg/mL)

>>> recorded_result("COc1ccc2cc(CO[C@H]3[C@H](O)[C@H](O)[C@@H](O[C@H]4[C@H](O)[C@H](O)[C@@H](Oc5ccc(C[C@H]6NC(=O)[C@H]([C@@H](C)c7ccccc7)NC(=O)CNC(=O)[C@H](CO)NC(=O)[C@@H]([C@@H](O)[C@@H]7CN=C(N)N7[C@H]7O[C@H](O)[C@@H](O)[C@H](O)[C@@H]7O)NC(=O)[C@H]([C@@H](O)[C@@H]7CN=C(N)N7)NC6=O)cc5)O[C@@H]4CO)O[C@@H]3CO)ccc2c1")
0.25
>>> recorded_result("COc1ccc2cc(CO[C@H]3[C@H](O)[C@@H](CO)OC(O[C@H]4[C@H](O)[C@H](O)[C@@H](Oc5ccc(C[C@H]6NC(=O)[C@H]([C@@H](C)c7ccccc7)NC(=O)CNC(=O)[C@H](CO)NC(=O)[C@@H]([C@@H](O)[C@@H]7CN=C(N)N7[C@H]7O[C@H](O)[C@@H](O)[C@H](O)[C@@H]7O)NC(=O)[C@H]([C@@H](O)[C@@H]7CN=C(N)N7)NC6=O)cc5)O[C@@H]4CO)[C@H]3O)ccc2c1 (stereo not given in full)")
1
>>> recorded_result("CN[C@H](CC(C)C)C(=O)N[C@H]1C(=O)N[C@@H](CC(N)=O)C(=O)N[C@H]2C(=O)N[C@H]3C(=O)N[C@H](C(=O)N[C@H](C(=O)O)c4cc(O)cc(O)c4-c4cc3ccc4O)[C@H](O)c3ccc(c(Cl)c3)Oc3cc2cc(c3O[C@@H]2O[C@H](CO)[C@@H](O)[C@H](O)[C@H]2O[C@H]2C[C@](C)(N)[C@H](O)[C@H](C)O2)Oc2ccc(cc2Cl)[C@H]1O")
0.5
>>> recorded_result("COc1ccc2cc(CO[C@@H]3[C@@H](O[C@H]4[C@H](O)[C@H](O)[C@@H](Oc5ccc(C[C@H]6NC(=O)[C@H]([C@@H](C)c7ccccc7)NC(=O)CNC(=O)[C@H](CO)NC(=O)[C@@H]([C@@H](O)[C@@H]7CN=C(N)N7[C@H]7O[C@H](O)[C@@H](O)[C@H](O)[C@@H]7O)NC(=O)[C@H]([C@@H](O)[C@@H]7CN=C(N)N7)NC6=O)cc5)O[C@@H]4CO)O[C@H](CO)[C@@H](O)[C@@H]3O)ccc2c1")
32

* * *

# MIC per entry
tested on: Streptococcus pneumoniae; assay: Minimum inhibitory concentration against Streptococcus pneumoniae (GC 4565) was determined; assay type: functional
parameter_measured: MIC (µg/mL)

>>> recorded_result("CN[C@H](CC(C)C)C(=O)N[C@H]1C(=O)N[C@@H](CC(N)=O)C(=O)N[C@H]2C(=O)N[C@H]3C(=O)N[C@H](C(=O)N[C@H](C(=O)O)c4cc(O)cc(O)c4-c4cc3ccc4O)[C@H](O)c3ccc(c(Cl)c3)Oc3cc2cc(c3O[C@@H]2O[C@H](CO)[C@@H](O)[C@H](O)[C@H]2O[C@H]2C[C@](C)(N)[C@H](O)[C@H](C)O2)Oc2ccc(cc2Cl)[C@H]1O")
0.25
>>> recorded_result("COc1ccc2cc(CO[C@@H]3[C@@H](O[C@H]4[C@H](O)[C@H](O)[C@@H](Oc5ccc(C[C@H]6NC(=O)[C@H]([C@@H](C)c7ccccc7)NC(=O)CNC(=O)[C@H](CO)NC(=O)[C@@H]([C@@H](O)[C@@H]7CN=C(N)N7[C@H]7O[C@H](O)[C@@H](O)[C@H](O)[C@@H]7O)NC(=O)[C@H]([C@@H](O)[C@@H]7CN=C(N)N7)NC6=O)cc5)O[C@@H]4CO)O[C@H](CO)[C@@H](O)[C@@H]3O)ccc2c1")
32

* * *

# MIC per entry
test system: Enterococcus sp.; assay: Minimum inhibitory concentration against Enterococcus species. was determined; type: functional
parameter_measured: MIC (µg/mL)

>>> recorded_result("CC(C)CC(=O)O[C@@H]1[C@H](O)[C@@H](O[C@H]2[C@H](O)[C@H](O)[C@@H](Oc3ccc(C[C@H]4NC(=O)[C@H]([C@@H](C)c5ccccc5)NC(=O)CNC(=O)[C@H](CO)NC(=O)[C@@H]([C@@H](O)[C@@H]5CN=C(N)N5[C@H]5O[C@H](O)[C@@H](O)[C@H](O)[C@@H]5O)NC(=O)[C@H]([C@@H](O)[C@@H]5CN=C(N)N5)NC4=O)cc3)O[C@@H]2CO)O[C@H](CO)[C@H]1O")
64
>>> recorded_result("CC(C)CC(=O)O[C@H]1[C@H](O)[C@H](O)[C@@H](O[C@H]2[C@H](O)[C@H](O)[C@@H](Oc3ccc(C[C@H]4NC(=O)[C@H]([C@@H](C)c5ccccc5)NC(=O)CNC(=O)[C@H](CO)NC(=O)[C@@H]([C@@H](O)[C@@H]5CN=C(N)N5[C@H]5O[C@H](O)[C@@H](O)[C@H](O)[C@@H]5O)NC(=O)[C@H]([C@@H](O)[C@@H]5CN=C(N)N5)NC4=O)cc3)O[C@@H]2CO)O[C@@H]1CO")
4
>>> recorded_result("C[C@@H](c1ccccc1)[C@@H]1NC(=O)CNC(=O)[C@H](CO)NC(=O)[C@@H]([C@@H](O)[C@@H]2CN=C(N)N2[C@H]2O[C@H](O)[C@@H](O)[C@H](O)[C@@H]2O)NC(=O)[C@H]([C@@H](O)[C@@H]2CN=C(N)N2)NC(=O)[C@@H](Cc2ccc(O[C@H]3O[C@H](CO)[C@@H](O[C@H]4O[C@H](CO)[C@@H](O)[C@H](O)[C@@H]4O)[C@H](O)[C@@H]3O)cc2)NC1=O")
128

* * *

tested on: Enterococcus faecalis; test: Minimum inhibitory concentration against Enterococcus faecalis (GC 4553) was determined; type: functional
parameter_measured: MIC (µg/mL)

>>> recorded_result("CN[C@H](CC(C)C)C(=O)N[C@H]1C(=O)N[C@@H](CC(N)=O)C(=O)N[C@H]2C(=O)N[C@H]3C(=O)N[C@H](C(=O)N[C@H](C(=O)O)c4cc(O)cc(O)c4-c4cc3ccc4O)[C@H](O)c3ccc(c(Cl)c3)Oc3cc2cc(c3O[C@@H]2O[C@H](CO)[C@@H](O)[C@H](O)[C@H]2O[C@H]2C[C@](C)(N)[C@H](O)[C@H](C)O2)Oc2ccc(cc2Cl)[C@H]1O")
0.5
>>> recorded_result("COc1ccc2cc(CO[C@H]3[C@H](O)[C@@H](CO)OC(O[C@H]4[C@H](O)[C@H](O)[C@@H](Oc5ccc(C[C@H]6NC(=O)[C@H]([C@@H](C)c7ccccc7)NC(=O)CNC(=O)[C@H](CO)NC(=O)[C@@H]([C@@H](O)[C@@H]7CN=C(N)N7[C@H]7O[C@H](O)[C@@H](O)[C@H](O)[C@@H]7O)NC(=O)[C@H]([C@@H](O)[C@@H]7CN=C(N)N7)NC6=O)cc5)O[C@@H]4CO)[C@H]3O)ccc2c1 (stereo not given in full)")
8
>>> recorded_result("COc1ccc2cc(CO[C@@H]3[C@@H](O[C@H]4[C@H](O)[C@H](O)[C@@H](Oc5ccc(C[C@H]6NC(=O)[C@H]([C@@H](C)c7ccccc7)NC(=O)CNC(=O)[C@H](CO)NC(=O)[C@@H]([C@@H](O)[C@@H]7CN=C(N)N7[C@H]7O[C@H](O)[C@@H](O)[C@H](O)[C@@H]7O)NC(=O)[C@H]([C@@H](O)[C@@H]7CN=C(N)N7)NC6=O)cc5)O[C@@H]4CO)O[C@H](CO)[C@@H](O)[C@@H]3O)ccc2c1")
128
>>> recorded_result("COc1ccc2cc(COC[C@H]3O[C@H](O[C@H]4[C@H](O)[C@H](O)[C@@H](Oc5ccc(C[C@H]6NC(=O)[C@H]([C@@H](C)c7ccccc7)NC(=O)CNC(=O)[C@H](CO)NC(=O)[C@@H]([C@@H](O)[C@@H]7CN=C(N)N7[C@H]7O[C@H](O)[C@@H](O)[C@H](O)[C@@H]7O)NC(=O)[C@H]([C@@H](O)[C@@H]7CN=C(N)N7)NC6=O)cc5)O[C@@H]4CO)[C@@H](O)[C@@H](O)[C@@H]3O)ccc2c1")
8
>>> recorded_result("COc1ccc2cc(CO[C@H]3[C@H](O)[C@H](O)[C@@H](O[C@H]4[C@H](O)[C@H](O)[C@@H](Oc5ccc(C[C@H]6NC(=O)[C@H]([C@@H](C)c7ccccc7)NC(=O)CNC(=O)[C@H](CO)NC(=O)[C@@H]([C@@H](O)[C@@H]7CN=C(N)N7[C@H]7O[C@H](O)[C@@H](O)[C@H](O)[C@@H]7O)NC(=O)[C@H]([C@@H](O)[C@@H]7CN=C(N)N7)NC6=O)cc5)O[C@@H]4CO)O[C@@H]3CO)ccc2c1")
2
